Recorded pKd values for a group of binders are listed next.
Molecular target: T1, GFP-9S library array, motif 4 ND N98F;D124M (synthetic construct, N98F;D124M)
T1 chain: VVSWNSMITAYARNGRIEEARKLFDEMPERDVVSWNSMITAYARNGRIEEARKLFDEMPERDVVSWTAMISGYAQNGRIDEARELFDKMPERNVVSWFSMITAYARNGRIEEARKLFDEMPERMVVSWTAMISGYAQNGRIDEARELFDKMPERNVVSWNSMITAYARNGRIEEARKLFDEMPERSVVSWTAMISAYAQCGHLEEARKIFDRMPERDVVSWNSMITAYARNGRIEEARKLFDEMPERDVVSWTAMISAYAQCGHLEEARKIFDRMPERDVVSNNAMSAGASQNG
Assay: high-throughput RNA pulldown from lysate on Ni-NTA beads; HRP: 50 mM Tris pH 8, 150 mM NaCl, 1 mM beta-mercaptoethanol, 50 ug/ml BSA, 3 ug/ml yeast RNA, 0.5% heparin; ITC and FP: Tris pH 8, 200 mM KCl, 5% glycerol; MST: 50 mM Tris pH 8, 200 mM NaCl, 1 mM DTT, BSA, heparin, 0.05% Tween 20
Conditions: tags: N-terminal His-eGFP; label: 5' Cy5
Remember, pKd is on a log scale: it is -log10 of the molar concentration.

| BINDER | pKd |
| --- | --- |
| AUUAGACGUGA (ssRNA) [Cy5-rpoA-G] | 7.16 |

Let us examine a further case.
Ask: For the binder shown here, AUUACACGUGA (ssRNA) [Cy5-rpoA] , give the reported pKd.
Result: 7.12
